- testedTarget: ERR1 (also known as ERR-α or ERR-1) (Homo sapiens, UniProt P11474)
- Sequence (P11474 193-421 limits assumed): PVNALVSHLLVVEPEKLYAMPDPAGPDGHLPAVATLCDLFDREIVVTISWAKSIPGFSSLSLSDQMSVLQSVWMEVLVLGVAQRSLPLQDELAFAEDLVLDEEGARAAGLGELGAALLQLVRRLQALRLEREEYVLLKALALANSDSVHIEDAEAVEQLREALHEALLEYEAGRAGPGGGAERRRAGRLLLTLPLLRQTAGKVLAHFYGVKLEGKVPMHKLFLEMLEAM
- protocolSummary: TR-FRET assay (disruption of co-activator peptide binding to ERR1 LBD)
- runParameters: 6 nM 6His-ERR1LBD, 6 nM GST-SRC-2 peptide; average of 3 independent experiments
measurementKind: log10 of EC50 (log10 of the value in nM)
Transform log10 | Measure EC50 | Unit nM

Specify log10 of EC50 for CCOC(=O)C1CCC(N2C(=O)S/C(=C\c3ccc4c(c3)nnn4Cc3ccc(Cl)cc3C(F)(F)F)C2=O)CC1 (centres unmarked) and stop.
2.09

Specify log10 of EC50 for CN1C[C@@H](N2C(=O)S/C(=C\c3ccc4c(cnn4Cc4ccc(Cl)cc4C(F)(F)F)c3)C2=O)[C@@H](F)C1 (relative stereo) and stop.
1.73

Specify log10 of EC50 for CN1C[C@@H](F)[C@H](N2C(=O)S/C(=C\c3ccc4c(cnn4Cc4ccc(Cl)cc4C(F)(F)F)c3)C2=O)C1 (relative stereo) and stop.
1.32

Specify log10 of EC50 for O=C1S/C(=C\c2ccc3c(cnn3Cc3ccc(Cl)cc3C(F)(F)F)c2)C(=O)N1CCn1ccnc1 and stop.
1.23

Specify log10 of EC50 for O=C(O)CN1C(=O)S/C(=C\c2ccc3c(cnn3Cc3ccc(Cl)cc3C(F)(F)F)c2)C1=O and stop.
0.95

Specify log10 of EC50 for O=C1S/C(=C\c2ccc3c(cnn3Cc3ccc(Cl)cc3C(F)(F)F)c2)C(=O)N1CC(O)CO (centres unmarked) and stop.
1.20

Specify log10 of EC50 for CC(C)(C)NS(=O)(=O)CN1C(=O)S/C(=C\c2ccc3c(cnn3Cc3ccc(Cl)cc3C(F)(F)F)c2)C1=O and stop.
1.89

Specify log10 of EC50 for COC(=O)C(Cc1cccnc1)N1C(=O)S/C(=C\c2ccc3c(cnn3Cc3ccc(Cl)cc3C(F)(F)F)c2)C1=O (centres unmarked) and stop.
1.61
